target: Alpha-2C adrenergic receptor (Homo sapiens)
Sequence (whole entry): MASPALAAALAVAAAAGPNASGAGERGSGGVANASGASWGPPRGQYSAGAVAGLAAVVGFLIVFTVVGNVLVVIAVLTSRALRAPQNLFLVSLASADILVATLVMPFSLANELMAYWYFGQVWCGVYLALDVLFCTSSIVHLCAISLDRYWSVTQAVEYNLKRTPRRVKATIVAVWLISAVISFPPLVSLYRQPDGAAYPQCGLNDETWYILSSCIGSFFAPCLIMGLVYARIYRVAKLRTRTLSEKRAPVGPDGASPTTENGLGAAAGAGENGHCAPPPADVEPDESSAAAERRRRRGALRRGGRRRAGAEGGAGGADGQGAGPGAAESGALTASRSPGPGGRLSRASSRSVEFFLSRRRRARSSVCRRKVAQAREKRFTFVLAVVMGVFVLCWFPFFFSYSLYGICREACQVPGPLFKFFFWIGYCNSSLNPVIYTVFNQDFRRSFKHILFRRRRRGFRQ
measurement.setup: Compound concentration 10 µM
Description: PDSP Primary Binding target: ADRA2C - Compounds are tested at 10 uM concentration, plate are incubated at room temperature in the dark for 90 minutes. Reaction are stopped by vacuum filtration onto 0.3% polyethyleneimine soaked filter mats using Filtermate harvester. Scintilation cocktail is then melted onto microwave-dried filters on a hot plate and the radio activity is counted in Microbia counter.
So basically: inhibition at 40% or higher? That is 1. Lower than 40%? That is 0.

[[record]]
smiles_entry = "Cc1cc(C(=O)N2Cc3cnn(C)c3Nc3ccccc32)ccc1CNC(=O)N1CCC[C@H]1C(=S)N1CCCN(C)CC1"
class = 0

[[record]]
smiles_entry = "CNC[C@H](O)c1ccc(O)c(O)c1"
class = 1

[[record]]
smiles_entry = "Clc1cccc(COc2cncc(N3CCNCC3)n2)c1"
class = 0

[[record]]
smiles_entry = "Cc1nc(-c2ccc(C(F)(F)F)cc2)sc1COc1ccc([C@H](CC(=O)O)c2ccon2)cc1"
class = 0

[[record]]
smiles_entry = "COc1ccc(CNC(=O)c2cc(-c3cncc(Cl)c3)cnc2-c2ccccn2)nc1OC"
class = 0


Entry source: ChEMBL document CHEMBL5442219
